assay: recombinant barcode read abundance after kanamycin selection (control-corrected) (log10(CPM+1)); higher = more efficient recombination; sequences stand for … in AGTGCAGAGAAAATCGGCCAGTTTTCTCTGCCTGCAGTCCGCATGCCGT…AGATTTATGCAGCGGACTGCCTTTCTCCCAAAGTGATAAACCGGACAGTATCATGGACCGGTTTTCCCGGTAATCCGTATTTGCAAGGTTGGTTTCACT; site = the 11-nt target;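 further: IS621 recombinase and bridge RNA in Escherichia coli cells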
Values of recombinant barcode read abundance (log10) greater than or equal to 0.5 map to Met; values below map to Not met.

For orientation, consider the following solved cases.
AGCAGTGCTTGGGTTCTAACCTGTTGCCT (site AGCAGTGCTAG)    Met
ACAAGACCTTGGGTTCTAACCTGTTGCAT (site ACAAGACCTAT)    Met
TATTTGCCTTGGGTTCTAACCTGTTGCCT (site TAGTTGCCTAG)    Not met
TTGAGGACTTGGGTTCTAACCTGTTGCCT (site ATGAGGACTAG)    Not met
GAGCAGACTTGGGTTCTAACCTGTTGCCT (site GAGCCGACTAG)    Not met
CGGCACACTTGGGTTCTAACCTGTTGCTT (site CGGCTCACTTA)    Not met

# input Determine whether measured recombinant barcode read abundance (log10) meets or exceeds 0.5 for AATTGTTCTTGGGTTCTAACCTGTTGCCT (site AATGCTTCTAG)
# output Not met

# input Answer whether recombinant barcode read abundance (log10) of GGGGTTCCTTGGGTTCTAACCTGTTGCTT (site GGGGTTCCTAC) is greater than or equal to 0.5.
# output Met

# input Identify whether the reported recombinant barcode read abundance (log10) of the following sequence is 0.5 or greater: CCTGGCACTTGGGTTCTAACCTGTTGCGA (site CCTCGCACTTC)
# output Not met
